Tested on: SK-MEL-28
experiment summary: Cytotoxicity against human SK-MEL-28 cells assessed as cellular growth at 10 uM by SRB assay
Assay type: functional

{"compound structure": "COc1ccc(S(=O)(=O)n2ccc(-c3ccc4c(c3)CCC(C)(C)O4)n2)cc1", "Activity, %": 98.27}
{"compound structure": "O=C(Nc1ccc(S(=O)(=O)Nc2nccs2)cc1)c1cccs1", "Activity, %": 115.4}
{"compound structure": "CC1(C)CCc2cc(-c3ccn(S(=O)(=O)c4ccccc4Cl)n3)ccc2O1", "Activity, %": 99.8}
{"compound structure": "O=S(=O)(Oc1ccc(-c2cnc3ccccc3n2)cc1)c1ccc2ccccc2c1", "Activity, %": 112.84}
{"compound structure": "O=C(Nc1nc2ccc(Cl)cc2s1)c1ccc(Cl)cc1", "Activity, %": 109.14}
{"compound structure": "CC1(C)CCc2cc(-c3ccn(S(=O)(=O)c4cccc(C(F)(F)F)c4)n3)ccc2O1", "Activity, %": 105.56}
{"compound structure": "CC1(C)CC(=O)c2cc3c(N)c(C(=O)Nc4ccccc4Cl)sc3nc2C1", "Activity, %": 116.26}
{"compound structure": "Clc1ccccc1Nc1nnc(-c2ccncc2)s1", "Activity, %": 100.34}
{"compound structure": "Cc1ccccc1NC(=O)c1sc2nc3c(cc2c1N)C(=O)CCC3", "Activity, %": 52.79}
{"compound structure": "Cc1ccc(Cl)cc1NC(=O)c1sc2nc3c(cc2c1N)C(=O)CCC3", "Activity, %": 67.01}
{"compound structure": "Cc1ccc(C(=O)/C=C2/Nc3ccc(C)cc3OC2=O)cc1", "Activity, %": 118.66}
{"compound structure": "O=C(Nc1ccc2oc(=O)ccc2c1)c1ccc(-c2ccc(Br)cc2)o1", "Activity, %": 119.2}
{"compound structure": "CC1(C)CC(=O)c2cc3c(N)c(C(=O)Nc4ccc(Cl)cc4)sc3nc2C1", "Activity, %": 118.07}
{"compound structure": "COc1cccc(C(=O)Nc2nc3ccc(Cl)cc3s2)c1", "Activity, %": 101.98}
